meta.source: the nanobody polyreactivity screen of Harvey et al. (2022)

procedure summary: yeast display, Sf9 membrane polyspecificity reagent, FACS + sequencing; frameworks hold sequencing errors
measured property: polyreactivity (PSR sort gate)

Example entries and their recorded answers appear below.
biopolymer sequence	polyreactivity (PSR sort gate)
QVQLVESGGGLVQAGGSLRLSCAASGFIFYRNAMGWYRQAPGKERELVAAISGSGGRTYYADSVNGRFTISRDNAKNTVYLQMNSLNPEDTAVYYCNAGLLYRGEYDYWGQGTQVTVSS	high polyreactivity
QVQLVESGVGLVQAGGSLRLSCAASGRIFATNAMGWYRQAPGKERELVATITRSAGRTYYADSVKGRFTISRDNAKNTVYLQMNSLKPEDTAVYYCAASYWDTEPGYREYDYWGQGTQVTVSS	low polyreactivity
QVQHDESGGCLVQAGGSLRLSCAASGITFILYDMGWYREAPGKVRELVASITSGGSTDYADSVKGRFTISRDNAKNTVYLQMNSLKPEDTAVYYCAARYVYPYWYGDYYWGQGTQVTVSS	low polyreactivity
QVQLVESGGGLVQAGGSLRLSCAASGITLARNAMGWYRQAPGKERELVASITWSGGTTYYADSVKGRFTISRDNAKNTVYLQMNSLKPEDTAVYYCAASAKLHFYRTYRYNYWGQGTQVTVSS	high polyreactivity
QVQLVESGGGLVQAGGSLRLSCAASGFIFYFYAMGWYRQAPGKERELVAAISYNGGSTYYADSVKGRFTISRDNAKNTVYLQMNSLKPEDTAVYYCNAVRNYAWGKMYSWGQGTQVTVSS	high polyreactivity

For each listed entry, give its polyreactivity (PSR sort gate).
1. QVQHVESGGGLVQAGGSLRLSCAASGSTFGYNDMGRYRQAPGKERELVAAIDTGVSTNYADSVKGRFTISRDNAKNTVYLQMNSLKPEDTAVYYCAKSGSAYWHSGWSVGFDYWGQGTQVTVSS
2. QVQLVESGGGLVQAGGSLRLSCAACGSIFRPNAMGWYRQAPGKERELVAAITWIAGGTYYADSVKGRFTISRDNAKNTVYLEMNSLKPEDTAVYYCAARWYFQTAVGRYYHYDYWGQGTQVTVSS
3. QVQLVESGGGLVQAGGSLRLSCAASGFIFEWYDMGWYRQAPGKERELVASISWSGGSTYYADSVKGRFTISRDNAKNTVYLQMNSLKPEDTAVYYCNTPSYTYWHWYDYWGQGTQVTVSS
4. QVQLVESGGGLVQAGGSLRLSCAASAYILFKYAKGSYRQAPGKERELVAGITRGGTTYYADSVKGRFTISRDNAKNTVYLQMNSLKPEDTAVYYCAVAITFSSYKFYYWGQGTQVTVSS
5. QVQLVESGGGLVQAGGSLRLSCAASGGIFRYYAMGWYRQAPAKERELVAAISSGGRTYYADSVKGRFTISRDNAKTTVYLQMNSLKPEDTAVYYCNADRYWGYDYWGQGTQVTVSS
6. QVQLVESGGGLVQAGGSLRLSCAASGITFRSYAMGWYRQAPGKERELVAAISQSGTSTYYADSVKGRFTISRDNAKNTVYLQMNSLKPEDTAVYYCAASYYLKLRRRRYDYWGQGTQVTVSS
7. QVQLVESGGGLVQAGGSLRLSCAASGRTFVYYDMGWYRQAPGKERELVASISSGDSTNYADSVKGRFTISRDNAKNTVYLQMNSLKPEDTAVYDCAARGYLRGEQLYVFIRYDYWGQGTQVTVSS

low polyreactivity
high polyreactivity
high polyreactivity
high polyreactivity
high polyreactivity
high polyreactivity
low polyreactivity

For each listed entry, give its polyreactivity (PSR sort gate).
1. QVQLVESGGGLVQAGGSLRLICAASGITFSLYVKGRYSQAPGNERELVAAISTSGGSTYYADSVKGRFSLSRDNPKKSVYFQMNSLKPEDTSVYYCAAVYVLSWYVQTYDYWGQGTQVTVSS
2. QFQLVESGGGLVQARGSLRLSCAASGSIFDLNAMGWYRPAPGKERELVAAISSGGGTYYADSVKGRFTISRDNAKNTVYFQMYSLKPDDSAVYYCAAGKSSPRRIFEYWGQGTEVTVSS
3. QVQLVESGGGLVQAGGSLRLSCAASGSTFGKNAMGWYRQAPGKERELVASITWRGGSTYYADSVKGRFTISRDNAKNTVYLQMNSLKPEDTAVYYCATKWHIHIGSYKYYYWGHGTQVTVSS

["low polyreactivity", "high polyreactivity", "low polyreactivity"]
